Origin of values: patent US11931424B2

Listing of recorded Best CI by entry.
# Tested on: panel of breast cancer cell lines
# runDescription: Compound A with targeted agents and chemotherapies, 72-hour in vitro proliferation assays
# Type: cell-based
# testConditions: KPL-1; compound A × partner, 72-hour proliferation
Structures can show the parent of a compound that is named as a salt.
Provide a numeric answer; units are not to be included.

Take a look at these entries with their results.
Cn1ncnc1[C@H]1c2n[nH]c(=O)c3cc(F)cc(c23)N[C@@H]1c1ccc(F)cc1 [BMN 673] | 0.53
CO[C@H]1C[C@@H]2CC[C@@H](C)[C@@](O)(O2)C(=O)C(=O)N2CCCC[C@H]2C(=O)O[C@H]([C@H](C)C[C@@H]2CC[C@@H](OCCO)[C@H](OC)C2)CC(=O)[C@H](C)/C=C(\C)[C@@H](O)[C@@H](OC)C(=O)[C@H](C)C[C@H](C)/C=C/C=C/C=C/1C [Everolimus] | 0.45
Cc1c(-c2ccc(N3CCc4cccc(C(=O)Nc5nc6ccccc6s5)c4C3)nc2C(=O)O)cnn1CC12CC3CC(CC(C3)C1)C2 [Compound A-1331852] | 0.03

Recorded Best CI of N.N.[Cl][Pt][Cl] [Cisplatin] , please.
0.76

Also check CC/C(=C(\c1ccccc1)c1ccc(OCCN(C)C)cc1)c1ccccc1 [Tamoxifen Citrate]
0.54

Also check CCN1CCN(Cc2ccc(Nc3ncc(F)c(-c4cc(F)c5nc(C)n(C(C)C)c5c4)n3)nc2)CC1 [Abemaciclib]
0.77

Also check CS(=O)(=O)CCNCc1ccc(-c2ccc3ncnc(Nc4ccc(OCc5cccc(F)c5)c(Cl)c4)c3c2)o1 [Lapatinib Ditosylate]
0.65

Also check N.N.O=C([O-])C1(C(=O)[O-])CCC1.[Pt+2] [Carboplatin]
0.89

Also check CN(C)C(=O)c1cc2cnc(Nc3ccc(N4CCNCC4)cn3)nc2n1C1CCCC1 [LEE011]
0.65

Also check CC1(C)CCC(c2ccc(Cl)cc2)=C(CN2CCN(c3ccc(C(=O)NS(=O)(=O)c4ccc(N[C@H](CCN5CCOCC5)CSc5ccccc5)c(S(=O)(=O)C(F)(F)F)c4)cc3)CC2)C1 [ABT-263]
0.14
